Cited source for all entries: patent US7005432B2

Measured pIC50 accompanies every entry in the list below.
experimental system: NMDA-receptor subtype 2B (Rattus norvegicus, UniProt P35439+Q00960)
Construct: Membranes were prepared by homogenization of the whole brain minus cerebellum and medulla oblongata
Sequence (Q00960 27-1482, other chains not shown): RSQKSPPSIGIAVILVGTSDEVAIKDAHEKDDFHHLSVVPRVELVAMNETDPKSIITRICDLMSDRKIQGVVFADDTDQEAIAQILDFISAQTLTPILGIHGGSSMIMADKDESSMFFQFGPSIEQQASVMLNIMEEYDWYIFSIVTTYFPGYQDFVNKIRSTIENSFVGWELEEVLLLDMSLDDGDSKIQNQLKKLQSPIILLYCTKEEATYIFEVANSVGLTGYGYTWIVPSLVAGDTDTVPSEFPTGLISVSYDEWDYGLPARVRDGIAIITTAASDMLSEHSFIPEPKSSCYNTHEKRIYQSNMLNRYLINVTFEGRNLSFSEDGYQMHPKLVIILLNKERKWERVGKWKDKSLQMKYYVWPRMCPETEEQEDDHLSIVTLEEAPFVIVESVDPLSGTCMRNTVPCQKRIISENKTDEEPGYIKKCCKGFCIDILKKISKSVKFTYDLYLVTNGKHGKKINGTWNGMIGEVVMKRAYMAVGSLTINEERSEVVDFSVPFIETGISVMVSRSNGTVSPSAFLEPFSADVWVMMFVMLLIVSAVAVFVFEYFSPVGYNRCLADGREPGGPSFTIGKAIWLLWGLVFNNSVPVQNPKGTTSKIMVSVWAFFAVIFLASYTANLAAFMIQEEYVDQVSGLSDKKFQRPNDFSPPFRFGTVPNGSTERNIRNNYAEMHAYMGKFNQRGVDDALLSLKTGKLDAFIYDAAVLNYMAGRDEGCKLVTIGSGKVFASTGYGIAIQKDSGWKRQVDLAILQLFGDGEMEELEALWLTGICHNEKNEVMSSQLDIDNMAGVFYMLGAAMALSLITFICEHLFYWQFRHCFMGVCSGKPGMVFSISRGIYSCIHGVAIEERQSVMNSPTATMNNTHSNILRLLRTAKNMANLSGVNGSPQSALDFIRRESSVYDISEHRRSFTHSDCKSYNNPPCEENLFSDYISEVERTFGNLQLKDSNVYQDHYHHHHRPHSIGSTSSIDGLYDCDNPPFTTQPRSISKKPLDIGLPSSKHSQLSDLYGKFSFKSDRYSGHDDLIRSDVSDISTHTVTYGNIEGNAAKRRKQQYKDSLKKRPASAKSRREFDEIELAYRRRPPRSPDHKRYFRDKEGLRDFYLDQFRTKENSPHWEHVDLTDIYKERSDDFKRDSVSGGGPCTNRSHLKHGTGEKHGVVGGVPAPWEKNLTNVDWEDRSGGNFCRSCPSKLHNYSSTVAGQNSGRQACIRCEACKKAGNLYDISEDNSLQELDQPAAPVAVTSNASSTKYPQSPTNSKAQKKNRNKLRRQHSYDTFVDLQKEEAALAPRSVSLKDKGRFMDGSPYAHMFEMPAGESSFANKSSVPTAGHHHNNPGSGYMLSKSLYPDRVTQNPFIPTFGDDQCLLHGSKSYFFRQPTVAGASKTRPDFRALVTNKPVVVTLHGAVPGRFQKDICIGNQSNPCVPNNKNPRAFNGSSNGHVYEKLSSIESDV
test protocol: 3H-Ro 25-6981 binding (displacement) on rat brain membranes
measurement setup: displacement of 5 nM 3H-Ro 25-6981, rat whole brain (minus cerebellum and medulla oblongata) membranes, 2 hours at 4° C., Tris-HCl 50 mM pH 7.4
Counter-ions that a name gives are not always drawn.
Please treat pIC50 as minus the base-10 logarithm of the molar concentration.

Field: example entries. Status: answers known.
Cc1nccn1Cc1cc(-c2cc(F)cc(C(F)F)c2)cnn1 [Example 24, hydrochloride]: 7.33
Cc1nccn1Cc1cc(C2=Cc3ccccc3CC2)cnn1 [Example 68, hydrochloride]: 7.57
COc1cc(-c2cnnc(Cn3ccnc3C)c2)cc(C(F)(F)F)c1 [Example 38, hydrochloride]: 7.27
Cc1nccn1Cc1cc(-c2cccc(C(C)(C)C)c2)cnn1 [Example 34, hydrochloride]: 7.17
Cc1nccn1Cc1cc(-c2ccc(F)c(Cl)c2)cnn1 [Example 1, Hydrochloride]: 7.68
Cc1nccn1Cc1cc(-c2ccc(F)c(C(F)F)c2)cnn1 [Example 6, hydrochloride]: 7.77

The measured pIC50 associated with Cc1nccn1Cc1cc(-c2cccc3ccccc23)cnn1 [Example 35, hydrochloride] reads 7.60

Value of measured pIC50 for the entry Cc1nccn1Cc1cc(-c2ccc(Cl)c(C(C)(F)F)c2)cnn1 [Example 39, hydrochloride] : 7.62

Data point: Cc1nccn1Cc1cc(-c2cccc(C(C)(F)F)c2)cnn1 [Example 9, hydrochloride] ; pIC50 = 7.47

Input COc1ccc2cc(-c3cnnc(Cn4ccnc4C)c3)ccc2c1 [Example 27, hydrochloride] . Output pIC50: 7.36

###

experimental system: NMDA-receptor subtype 2B (Rattus norvegicus, UniProt P35439+Q00960)
Construct: Membranes were prepared by homogenization of the whole brain minus cerebellum and medulla oblongata
test protocol: 3H-Ro 25-6981 binding (displacement) on rat brain membranes
measurement setup: displacement of 5 nM 3H-Ro 25-6981, rat whole brain (minus cerebellum and medulla oblongata) membranes, 2 hours at 4° C., Tris-HCl 50 mM pH 7.4
Structures can show the parent of a compound that is named as a salt.
Listed next: entries and their corresponding IC50.
The reply should be a number in nM, with the unit left off.

Noted for Cc1nccn1Cc1cc(-c2ccc(Cl)c(C(F)(F)F)c2)cnn1 [Example 4, hydrochloride] : its IC50 reads 27

// field: IC50; key: COc1cc(-c2cnnc(Cn3ccnc3C)c2)ccc1Cl [Example 41, hydrochloride] ; value = 41

get_value(item= COc1ccc2ccc(-c3cnnc(Cn4ccnc4C)c3)cc2c1 [Example 48, hydrochloride] , readout=IC50) returns 35

GET /value?item= Cc1nccn1Cc1cc(-c2ccc(F)c3ccccc23)cnn1 [Example 50, hydrochloride] &field=IC50 returns 29
